Where these numbers come from: patent US5281710A

Tested on: UCLA P-3 non-small cell lung carcinoma cells
Experiment: Sulforhodamine B cytotoxicity, UCLA-P3
Type: cell-based, human
Settings: Table 7, UCLA-P3; read-out: Cytotoxicity (IC50)
Measured IC50 by item
Parameter: IC50 (µM)

[[record]]
compound = "CC(COC(=O)N1c2ccccc2C23OC24CCCC3C#CC=CC#CC14)S(=O)(=O)c1ccccc1 (centres unmarked) [Compound 428]"
observed_result = 13

[[record]]
compound = "CC(COC(=O)N1c2ccccc2C23OC24CCCC3C#CC=CC#CC14)S(=O)(=O)c1ccccc1 (centres unmarked) [Compound 427]"
observed_result = 3.1


###

System: H-322 lung carcinoma cells
Experiment: Sulforhodamine B cytotoxicity, H-322
Format: cell-based
Conditions: NCI-H322; H-322; read-out: IC50
Protocol: In addition to the screening already discussed, several of the before-described compounds and chimeras were screened against several or all of a panel of ten to twenty-five cancerous cell lines as target cells and seven "normal" cell preparations. This screening utilized a sulforhodamine B cytotoxidity assay as discussed below. IC50 values; i.e., the concentration of Compound required to kill one-half of the treated cells, were then calculated.
Parameter: IC50 (µM)

[[record]]
compound = "C[N+](C)(C)CC(=O)OCCOc1ccc2c(c1)[C@@]13O[C@]14CCC[C@H]3C#C/C=C\\C#C[C@@H]4N2C(=O)OCCS(=O)(=O)c1ccccc1 (relative stereo) [Compound 250]"
observed_result = 13

[[record]]
compound = "O=C(OCCS(=O)(=O)c1ccccc1)N1c2ccc(OCCO)cc2C23OC24CCCC3C#C/C=C\\C#CC14 (centres unmarked) [Compound 153]"
observed_result = 0.39

